# procedure.text: Particle size of nucleic acid lipid particles (FVII-siRNA)
# Assay type: physicochemical
value.kind: Particle size (nm)
One number for each entry, in nm.

- molecule: "CCCCC/C=C\\C/C=C\\CCCCCCCCC(CCCCCCCC/C=C\\C/C=C\\CCCCC)OC(=O)OCCN(CCN(CC)CC)Cc1ccccc1 [Example 51]"
  result.unit: "nm"
  Particle size (nm): 71
- molecule: "CCCCC/C=C\\C/C=C\\CCCCCCCCC(CCCCCCCC/C=C\\C/C=C\\CCCCC)OC(=O)OCCN(CCN(CC)CC)C(C)C [Example 42]"
  result.unit: "nm"
  Particle size (nm): 68.1
- molecule: "CCCCCCCCCC(=O)OCCN(CCOC(=O)OC(CCCCCC)CCCC(=O)OCC(CCCC)CCCCCC)CCN(CC)CC (stereo not shown) [Example 107]"
  result.unit: "nm"
  Particle size (nm): 70.6
- molecule: "CCCCC/C=C\\C/C=C\\CCCCCCCCC(CCCCCCCC/C=C\\C/C=C\\CCCCC)N(C)CCN(C)C [Comparative Example 9, reference compound]"
  result.unit: "nm"
  Particle size (nm): 60
- molecule: "CCCCCCCCC(=O)OCCN(CCOC(=O)OC(CCCCCC)CCCCCCCCC(=O)OCC(CCCC)CCCCCC)CCN(CC)CC (stereo not shown) [Example 103]"
  result.unit: "nm"
  Particle size (nm): 69.8
- molecule: "CCCCCCCCC(CCCCCC)COC(=O)CCCC(CCCCCC)OC(=O)OCCN(CCOC(=O)CCCCCCC)CCN(CC)CC (stereo not shown) [Example 111]"
  result.unit: "nm"
  Particle size (nm): 70.5

Below: the item to evaluate.
(Q) Particle size (nm) lookup needed for CCCCC/C=C\C/C=C\CCCCCCCCC(CCCCCCCC/C=C\C/C=C\CCCCC)OC(=O)OCCN(CCCCC)CCN(C)C [Example 40] , thanks.
(A) 66.6
